Test: NCI Yeast Anticancer Drug Screen. Data for the mec2-1 strain (AID 157)
Settings: S. cerevisiae mec2-1 strain, at 11.0 µM, active compounds read high
Compounds without any hit were thinned out: in the full panel of roughly 79,000, 15% have a hit.
recorded-endpoint: growth inhibition (%)
Respond with the bare value in %.

O=[N+]([O-])c1cc(F)c(F)cc1Sc1cc(F)c(F)cc1[N+](=O)[O-]	83

IN: Quick one: give measured growth inhibition for `CCCCc1nnc(NS(=O)(=O)c2ccc(C)cc2)s1`
OUT: -3

IN: State its growth inhibition: Cc1ccc2c(c1)C1(SC(C)C(=O)N1c1ccc(Cl)cc1)C(=O)N2 (stereo not given)
OUT: 12

IN: Return reported growth inhibition. Input molecule: `N/C(=N/N=C/c1cc(Br)cc(Br)c1O)NO`
OUT: -6

IN: For the molecule `CS(=O)(=O)OCCN(CCOS(C)(=O)=O)c1ccc(C=Nc2ccc(-c3csc(COc4ccccc4)n3)cc2)cc1` , give its measured growth inhibition value.
OUT: 41

IN: Read off the recorded growth inhibition for `Cc1cc2c(cc1C)[n+]([O-])c(-c1nc3ccccc3s1)c(N)[n+]2[O-]`
OUT: 26

IN: Please give measured growth inhibition of the following entry: `c1ccc2cc(NCNc3ccc4ccccc4c3)ccc2c1`
OUT: 3

IN: Specify reported growth inhibition for the molecule shown: `O=[N+]([O-])c1cc[n+]([O-])cc1`
OUT: 0

IN: Please indicate growth inhibition recorded for `COc1cc([C@@H]2c3cc4c(cc3[C@@H](Nc3ccc(NC(=O)c5cc([N+](=O)[O-])cn5C)cc3)[C@H]3COC(=O)[C@H]23)OCO4)cc(OC)c1O`
OUT: 42

IN: Fill in reported growth inhibition for this entry: Cc1cccc[n+]1C1CCc2c(ccc3ccccc23)C1=O (stereo not given)
OUT: -1

---

Assay: NCI Yeast Anticancer Drug Screen. Data for the rad18 strain (AID 177)
Conditions: S. cerevisiae rad18 mutant growth inhibition; at 3.7 µM; active compounds read high
This is part of a sample that, as a whole, favours compounds with a hit. Of some 79,000 tested, about 15% had one in any assay.
recorded-endpoint: growth inhibition (%)
Write it as a number; the unit % goes unstated.

Here are 6 compounds together with their reported answers.
CCCCOP(=O)(CCCP(=O)(OCCCC)OCCCC)OCCCC	0
CN1CCN(C(=O)/C=C/C(=O)c2ccccc2)CC1	11
CC(=O)OC1CCC2(C)C(=CC(C3C=C4CC(OC(C)=O)CCC4(C)C4=C3C3CC5OC6(CCC(C)CO6)C(C)C5C3(C)CC4)C3=C2CCC2(C)C3CC3OC4(CCC(C)CO4)C(C)C32)C1 (configuration not stated)	-3
CCc1c(Cl)c(C)cc(O)c1Cl	6
O=C1C=C(c2ccccc2)OC1(c1ccccc1)N1CCOCC1 (configuration not stated)	-4
COc1ccc(C(=O)Oc2ccccc2Br)cc1	2

IN: Read the entry `O=C(O)c1cc2ccc(Cl)cc2c(O)c1C1=CCCCC1` and write its reported growth inhibition.
OUT: 21

---

Assay: NCI Yeast Anticancer Drug Screen. Data for the rad18 strain (AID 177)
Conditions: S. cerevisiae rad18 mutant growth inhibition; at 11.0 µM; active compounds read high
The panel holds about 79,000 compounds, 15% with a hit somewhere; the sample as a whole holds those more often.
recorded-endpoint: growth inhibition (%)
Numeric only. Scale: %

CC(C)OC(=O)Nc1ccc2nc(-c3cscn3)[nH]c2c1	-3

IN: Assign growth inhibition to the following record: `Cc1nc2ccccc2nc1NNc1ccccc1`
OUT: -5

IN: Tell me measured growth inhibition for `Clc1ccc(NCNC2Nc3ccccc3N2)cc1Cl` please.
OUT: 92

IN: Please supply the value of reported growth inhibition for the item `OCC(CO)C(c1cccc2ccccc12)c1cccc2ccccc12`
OUT: 98

IN: Return reported growth inhibition. Input compound: `c1ccc2cc(NCNc3ccc4ccccc4c3)ccc2c1`
OUT: -19

IN: Quickly give me recorded growth inhibition for `Nc1ccc(F)cc1S`
OUT: 1

IN: Give the measured growth inhibition for `COC(=O)/C=C(/CC(=O)OC)C(=O)OC`
OUT: 1

IN: Annotate the compound `O=C(O)c1ccc(N2C(=O)C=CC2=O)cc1` with its measured growth inhibition.
OUT: 4
